Data credit: BigSolDB 2.1

Measurement conditions: in 1,4-dioxane, 303.15 K
Assay readout: solubility (mole fraction)

-- ask Recorded solubility (mole fraction) of Nc1cc(Cl)nnc1Cl , please.
-- reply 0.00556

###

Measurement conditions: in acetone, 323.15 K
Assay readout: solubility (mole fraction)

-- ask Recorded solubility (mole fraction) of Nc1cc(Cl)nnc1Cl , please.
-- reply 0.0427

###

Measurement conditions: in THF, 303.15 K
Assay readout: solubility (mole fraction)
Keep the answer to the number alone.

-- ask Recorded solubility (mole fraction) of Nc1cc(Cl)nnc1Cl , please.
-- reply 0.0556

###

Measurement conditions: in acetone, 310.65 K
Assay readout: solubility (mole fraction)
Keep the answer to the number alone.

-- ask Recorded solubility (mole fraction) of Nc1cc(Cl)nnc1Cl , please.
-- reply 0.0342

###

Measurement conditions: in methanol, 313.15 K
Assay readout: solubility (mole fraction)
Keep the answer to the number alone.

-- ask Recorded solubility (mole fraction) of Nc1cc(Cl)nnc1Cl , please.
-- reply 0.0214

###

Measurement conditions: in ethyl acetate, 315.65 K
Assay readout: solubility (mole fraction)
Keep the answer to the number alone.

-- ask Recorded solubility (mole fraction) of Nc1cc(Cl)nnc1Cl , please.
-- reply 0.00577

###

Measurement conditions: in dichloromethane, 303.15 K
Assay readout: solubility (mole fraction)

-- ask Recorded solubility (mole fraction) of Nc1cc(Cl)nnc1Cl , please.
-- reply 0.000387

###

Measurement conditions: in dichloromethane, 305.15 K
Assay readout: solubility (mole fraction)
Keep the answer to the number alone.

-- ask Recorded solubility (mole fraction) of Nc1cc(Cl)nnc1Cl , please.
-- reply 0.000543

###

Measurement conditions: in dichloromethane, 299.15 K
Assay readout: solubility (mole fraction)
Keep the answer to the number alone.

-- ask Recorded solubility (mole fraction) of Nc1cc(Cl)nnc1Cl , please.
-- reply 0.000174

###

Measurement conditions: in 1,4-dioxane, 313.15 K
Assay readout: solubility (mole fraction)
Keep the answer to the number alone.

-- ask Recorded solubility (mole fraction) of Nc1cc(Cl)nnc1Cl , please.
-- reply 0.00811

###

Measurement conditions: in ethyl acetate, 300.65 K
Assay readout: solubility (mole fraction)
Keep the answer to the number alone.

-- ask Recorded solubility (mole fraction) of Nc1cc(Cl)nnc1Cl , please.
-- reply 0.00159

###

Measurement conditions: in THF, 290.05 K
Assay readout: solubility (mole fraction)
Keep the answer to the number alone.

-- ask Recorded solubility (mole fraction) of Nc1cc(Cl)nnc1Cl , please.
-- reply 0.0443

###

Measurement conditions: in methanol, 308.15 K
Assay readout: solubility (mole fraction)

-- ask Recorded solubility (mole fraction) of Nc1cc(Cl)nnc1Cl , please.
-- reply 0.0189

###

Measurement conditions: in ethyl acetate, 303.15 K
Assay readout: solubility (mole fraction)

-- ask Recorded solubility (mole fraction) of Nc1cc(Cl)nnc1Cl , please.
-- reply 0.00192

###

Measurement conditions: in acetone, 303.15 K
Assay readout: solubility (mole fraction)
Keep the answer to the number alone.

-- ask Recorded solubility (mole fraction) of Nc1cc(Cl)nnc1Cl , please.
-- reply 0.0293

###

Measurement conditions: in acetone, 305.65 K
Assay readout: solubility (mole fraction)
Keep the answer to the number alone.

-- ask Recorded solubility (mole fraction) of Nc1cc(Cl)nnc1Cl , please.
-- reply 0.0311

###

Measurement conditions: in acetone, 313.15 K
Assay readout: solubility (mole fraction)
Keep the answer to the number alone.

-- ask Recorded solubility (mole fraction) of Nc1cc(Cl)nnc1Cl , please.
-- reply 0.036

###

Measurement conditions: in methanol, 300.65 K
Assay readout: solubility (mole fraction)

-- ask Recorded solubility (mole fraction) of Nc1cc(Cl)nnc1Cl , please.
-- reply 0.0161

###

Measurement conditions: in acetone, 300.65 K
Assay readout: solubility (mole fraction)
Keep the answer to the number alone.

-- ask Recorded solubility (mole fraction) of Nc1cc(Cl)nnc1Cl , please.
-- reply 0.0276

###

Measurement conditions: in ethyl acetate, 310.65 K
Assay readout: solubility (mole fraction)
Keep the answer to the number alone.

-- ask Recorded solubility (mole fraction) of Nc1cc(Cl)nnc1Cl , please.
-- reply 0.00371
